System: E. coli TESEC Mtb Alr
Experiment: growth (OD600 after 10 h); higher = more growth (less inhibition)
Settings: arabinose 100000 nM; compound 0.1 mM; raw OD600 reference: median of DMSO wells 0.201, cell-free background 0.041
Where a name gives a salt, the structure may show the parent alone.
Classification field: enter MET for growth values not below 0.2, NOT MET for values below it.

Check out these entries, answers already filled in.
CN(C)CCCN1c2ccccc2CCc2ccccc21 [Imipramine hydrochloride]
MET
CN(Cc1ccc(C(C)(C)C)cc1)Cc1cccc2ccccc12 [Butenafine Hydrochloride]
NOT MET
NS(=O)(=O)c1cc(Cl)c(Cl)c(S(N)(=O)=O)c1 [Dichlorphenamide]
MET

Q: Does the compound O=P(O)(O)C(O)(Cn1ccnc1)P(=O)(O)O [Zoledronic acid hydrate] have recorded growth that is 0.2 or more?
Result: NOT MET

* * *

System: E. coli TESEC Mtb Asd
Test: growth (OD600 after 10 h); higher = more growth (less inhibition)
Conditions: arabinose induction (level): Low; compound 0.1 mM; raw OD600 reference: median of DMSO wells 0.417, cell-free background 0.041
Where a name gives a salt, the structure may show the parent alone.
readout.kind: growth
Answer with a bare number; do not write a unit.

CC1(C)O[C@@H]2[C@@H](CO[C@@]3(COS(N)(=O)=O)OC(C)(C)O[C@@H]23)O1 [Topiramate]
0.295

Q: Fill in: growth of OC(Cn1cncn1)(Cn1cncn1)c1ccc(F)cc1F is ___
Result: 0.283

Q: Fill in: growth of C[C@H]1C[C@H]2[C@@H]3CCC4=CC(=O)C=C[C@]4(C)[C@@]3(F)[C@@H](O)C[C@]2(C)[C@@]1(O)C(=O)CO is ___
Result: 0.36

Q: Fill in: growth of Cc1cccc(C)c1NC(=O)CN1CCN(CCCC(c2ccc(F)cc2)c2ccc(F)cc2)CC1 is ___
Result: 0.361

Q: Fill in: growth of Cn1c(=O)c2c(ncn2CC(O)CO)n(C)c1=O (stereo not drawn) is ___
Result: 0.452

Q: Fill in: growth of CC(C)NCC(O)COc1cccc2[nH]ccc12 (stereo not drawn) is ___
Result: 0.403

Q: Fill in: growth of CCN(CC)CCOC(=O)C1(C2CCCCC2)CCCCC1 [Dicyclomine hydrochloride] is ___
Result: 0.21

Q: Fill in: growth of CC(=O)/N=c1/sc(S(N)(=O)=O)nn1C [Methazolamide] is ___
Result: 0.447

Q: Fill in: growth of C#C[C@]1(O)CC[C@H]2[C@@H]3CCC4=CC(=O)CC[C@@H]4[C@H]3CC[C@@]21C is ___
Result: 0.362

Q: Fill in: growth of CC#C[C@]1(O)CC[C@H]2[C@@H]3CCC4=CC(=O)CCC4=C3[C@@H](c3ccc(N(C)C)cc3)C[C@@]21C is ___
Result: 0.216

Q: Fill in: growth of COC(=O)Nc1nc2cc(C(=O)c3ccccc3)ccc2[nH]1 is ___
Result: 0.398

Q: Fill in: growth of COC(=O)CCc1ccc(OCC(O)CNC(C)C)cc1 (stereo not drawn) [Esmolol hydrochloride] is ___
Result: 0.432

Q: Fill in: growth of Nc1ccn([C@@H]2O[C@H](CO)[C@@H](O)[C@@H]2O)c(=O)n1 is ___
Result: 0.305

Q: Fill in: growth of Cn1cnc2c1c(=O)[nH]c(=O)n2C is ___
Result: 0.454

Q: Fill in: growth of CN1CCc2cccc3c2[C@H]1Cc1ccc(O)c(O)c1-3 [R(-) Apomorphine hydrochloride hemihydrate] is ___
Result: 0.147
